- Assay Notes: folding stability dG unfold (combined trypsin and chymotrypsin); higher = more stable
Is folding stability dG unfold at least 2 kcal/mol? Then yes (1). If not, no (0).

Consider the following illustrative entries.
• SAGGIKIQDPDDGEWIEFPLPIRNPGDGKPYPFKVEIPVRRDPENGRPYFYIEIEFPGNGRKMTFPLRSAGG [r13_262_TrROS] = no (0)
• SPKIKITEVEPNPGNMEKRTIELPNRPITLYWPPENGYYRVKIEDPDNNKERQIMVPPGQPPEEIAKDLLSA [r9_522_TrROS] = no (0)
• SAGGSAGGSKKALVVFYNPETGEVEVLEVEGDADLLKELFEPGTVVEIRVGDEVITIYPEDLKSAGGSAGGS [r20_36_TrMRF] = yes (1)
• SAGGSAMKKTITVTLSYPETGETRTVTVELTDIPESDPEKWKALAEEVAEALAKERGAEVLGIEISSAGGSA [r15_1013_JUSTAS] = yes (1)

Does the sequence SAGGSAGGSAMPLTSPEEAARHIKEALERLFPSSFPDRVIDPDVVVFTRPDGRVVALVKLKASAGGSAGGSA [r18_440_TrMRF] have recorded folding stability dG unfold that is 2 kcal/mol or more? no (0)

Please indicate if the recorded folding stability dG unfold for SAGGSAGGEPELNVLETLEETVDPNTGLTYTTELVQLPDGTLVTVKTLYDKATGTWTVLETTPESAGGSAGG [r6_262_JUSTAS] meets or exceeds 2 kcal/mol. yes (1)

Is reported folding stability dG unfold greater than or equal to 2 kcal/mol here: SAGGAPSSSPIPIDLGDPNDEEKLKAEVEAIEKEYAAKGVTPITVERVGENKYRIKIPTGGVATVALSAGGS [r16_703_JUSTAS] no (0)
